IC50 values for the molecules below.
Assayed Target: Human immunodeficiency virus type 1 integrase (Human immunodeficiency virus 1, UniProt Q7ZJM1)
Sequence (Q7ZJM1 whole entry): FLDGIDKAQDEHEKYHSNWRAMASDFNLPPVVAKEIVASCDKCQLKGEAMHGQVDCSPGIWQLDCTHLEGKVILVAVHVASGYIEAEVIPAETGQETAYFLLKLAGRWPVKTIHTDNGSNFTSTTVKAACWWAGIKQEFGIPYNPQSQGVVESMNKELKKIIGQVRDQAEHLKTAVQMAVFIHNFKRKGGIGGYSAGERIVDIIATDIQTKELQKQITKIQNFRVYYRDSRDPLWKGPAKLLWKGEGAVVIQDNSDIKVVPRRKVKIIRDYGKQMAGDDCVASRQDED
Run Description: Inhibition of HIV1 recombinant integrase 3'-processing activity
API: value field is a number in µM; no unit string.

The cases that follow already have their IC50 on record.
Molecule: CCn1cc(C(=O)O)c(=O)c2cc(F)c(N3CCN(CNC(=O)C4=C(O)[C@@H](N(C)C)[C@@H]5C[C@H]6C(=C(O)[C@]5(O)C4=O)C(=O)c4c(O)cccc4[C@@]6(C)O)C(C)C3)c(F)c21 (stereo not given in full)
IC50 / µM: 65
--
Molecule: COc1c(N2CCN(CNC(=O)C3=C(O)[C@@H](N(C)C)[C@@H]4[C@@H](O)[C@H]5C(=C(O)[C@]4(O)C3=O)C(=O)c3c(O)cccc3[C@@]5(C)O)C(C)C2)c(F)cc2c(=O)c(C(=O)O)cn(C3CC3)c12 (stereo not given in full)
IC50 / µM: 28
--
Molecule: CCn1cc(C(=O)O)c(=O)c2cc(F)c(N3CCN(CNC(=O)C4=C(O)[C@@H](N(C)C)[C@@H]5[C@@H](O)[C@H]6C(=C(O)[C@]5(O)C4=O)C(=O)c4c(O)cccc4[C@@]6(C)O)CC3)cc21
IC50 / µM: 21
--
Molecule: CN(C)[C@@H]1C(O)=C(C(=O)NCN2CCN(c3cc4c(cc3F)c(=O)c(C(=O)O)cn4C3CC3)CC2)C(=O)[C@@]2(O)C(O)=C3C(=O)c4c(O)cccc4[C@@](C)(O)[C@H]3[C@H](O)[C@@H]12
IC50 / µM: 38

# context switch: different molecule, same IC50
Look up IC50 for this molecule: `CCn1cc(C(=O)O)c(=O)c2cc(F)c(N3CCN(CNC(=O)C4=C(O)[C@@H](N(C)C)[C@@H]5C[C@H]6C(=C(O)[C@]5(O)C4=O)C(=O)c4c(O)cccc4[C@@]6(C)O)CC3)cc21`
20

* * *

IC50 values for the molecules below.
Assayed Target: Human immunodeficiency virus type 1 integrase (Human immunodeficiency virus 1)
Run Description: Inhibition of HIV1 recombinant integrase 3'-processing activity

The cases that follow already have their IC50 on record.
Molecule: CN(C)[C@@H]1C(O)=C(C(=O)NCN2CCCC2)C(=O)[C@@]2(O)C(O)=C3C(=O)c4c(O)cccc4[C@@](C)(O)[C@H]3C[C@@H]12
Measured Result: 28 µM
--
Molecule: CN(C)[C@@H]1C(O)=C(C(N)=O)C(=O)[C@@]2(O)C(O)=C3C(=O)c4c(O)cccc4[C@@](C)(O)[C@H]3C[C@@H]12
Measured Result: 204 µM
--
Molecule: CCn1cc(C(=O)O)c(=O)c2cc(F)c(N3CCN(CNC(=O)C4=C(O)[C@@H](N(C)C)[C@@H]5C[C@@H]6Cc7c(N(C)C)ccc(O)c7C(=O)C6=C(O)[C@]5(O)C4=O)C(C)C3)c(F)c21 (some centres undefined)
Measured Result: 20 µM

# context switch: different molecule, same IC50
Look up IC50 for this molecule: `CN(C)[C@@H]1C(O)=C(C(=O)NCN2CCN(c3cc4c(cc3F)c(=O)c(C(=O)O)cn4C3CC3)CC2)C(=O)[C@@]2(O)C(O)=C3C(=O)c4c(O)cccc4[C@@](C)(O)[C@H]3C[C@@H]12`
20 µM

* * *

CC50 at 120 h values for the compounds below.
Run Description: Cytotoxicity against CEM cells after 5 days by MTT method
Format: cell-based
Protocol Conditions: human, CCRF-CEM (CEM) cells
API: value field is a number in µM; no unit string.

The cases that follow already have their CC50 at 120 h on record.
Compound: CN(C)[C@@H]1C(O)=C(C(=O)NCN2CCN(c3cc4c(cc3F)c(=O)c(C(=O)O)cn4C3CC3)CC2)C(=O)[C@@]2(O)C(O)=C3C(=O)c4c(O)cccc4[C@@](C)(O)[C@H]3C[C@@H]12
Quantity Kind: CC50 at 120 h
Unit Name: µM
Measured Result: 141

Compound: CCn1cc(C(=O)O)c(=O)c2cc(F)c(N3CCN(CNC(=O)C4=C(O)[C@@H](N(C)C)[C@@H]5C[C@H]6C(=C(O)[C@]5(O)C4=O)C(=O)c4c(O)cccc4[C@@]6(C)O)CC3)cc21
Quantity Kind: CC50 at 120 h
Unit Name: µM
Measured Result: 131

Compound: COc1c(N2CCN(CNC(=O)C3=C(O)[C@@H](N(C)C)[C@@H]4C[C@@H]5Cc6c(N(C)C)ccc(O)c6C(=O)C5=C(O)[C@]4(O)C3=O)C(C)C2)c(F)cc2c(=O)c(C(=O)O)cn(C3CC3)c12 (stereo not given in full)
Quantity Kind: CC50 at 120 h
Unit Name: µM
Measured Result: 126

Look up CC50 at 120 h for this compound: `CN(C)c1ccc(O)c2c1C[C@H]1C[C@H]3[C@H](N(C)C)C(O)=C(C(N)=O)C(=O)[C@@]3(O)C(O)=C1C2=O`
52.1

* * *

Run Description: Cytotoxicity against CEM cells after 5 days by MTT method
Format: cell-based
Protocol Conditions: human, CCRF-CEM (CEM) cells
Field: label. Allowed values: yes (CC50 at 120 h < 40 µM) or no (CC50 at 120 h >= 40 µM).

Here's what some known entries look like.
Compound: COc1c(N2CCN(CNC(=O)C3=C(O)[C@@H](N(C)C)[C@@H]4[C@@H](O)[C@H]5C(=C(O)[C@]4(O)C3=O)C(=O)c3c(O)cccc3[C@@]5(C)O)C(C)C2)c(F)cc2c(=O)c(C(=O)O)cn(C3CC3)c12 (stereo not given in full)
Assigned Class: yes
--
Compound: CN(C)c1ccc(O)c2c1C[C@H]1C[C@H]3[C@H](N(C)C)C(O)=C(C(=O)NCN4CCN(c5cc6c(cc5F)c(=O)c(C(=O)O)cn6C5CC5)CC4)C(=O)[C@@]3(O)C(O)=C1C2=O
Assigned Class: no
--
Compound: COc1c(N2CCN(CNC(=O)C3=C(O)[C@@H](N(C)C)[C@@H]4C[C@H]5C(=C(O)[C@]4(O)C3=O)C(=O)c3c(O)cccc3[C@@]5(C)O)C(C)C2)c(F)cc2c(=O)c(C(=O)O)cn(C3CC3)c12 (stereo not given in full)
Assigned Class: no

CC50 at 120 h under 40 µM? Item: `CN(C)[C@@H]1C(O)=C(C(=O)NCN2CCN(c3cc4c(cc3F)c(=O)c(C(=O)O)cn4C3CC3)CC2)C(=O)[C@@]2(O)C(O)=C3C(=O)c4c(O)cccc4[C@@](C)(O)[C@H]3[C@H](O)[C@@H]12`
yes

And what about the compound CCn1cc(C(=O)O)c(=O)c2cc(F)c(N3CCN(CNC(=O)C4=C(O)[C@@H](N(C)C)[C@@H]5C[C@H]6C(=C(O)[C@]5(O)C4=O)C(=O)c4c(O)cccc4[C@@]6(C)O)C(C)C3)c(F)c21 (stereo not given in full) ?
no

And what about the compound CCn1cc(C(=O)O)c(=O)c2cc(F)c(N3CCN(CNC(=O)C4=C(O)[C@@H](N(C)C)[C@@H]5[C@@H](O)[C@H]6C(=C(O)[C@]5(O)C4=O)C(=O)c4c(O)cccc4[C@@]6(C)O)C(C)C3)c(F)c21 (stereo not given in full) ?
yes

And what about the compound `CCn1cc(C(=O)O)c(=O)c2cc(F)c(N3CCN(CNC(=O)C4=C(O)[C@@H](N(C)C)[C@@H]5C[C@@H]6Cc7c(N(C)C)ccc(O)c7C(=O)C6=C(O)[C@]5(O)C4=O)CC3)cc21` ?
no

And what about the compound `CN(C)[C@@H]1C(O)=C(C(=O)NCN2CCCC2)C(=O)[C@@]2(O)C(O)=C3C(=O)c4c(O)cccc4[C@@](C)(O)[C@H]3C[C@@H]12` ?
no

* * *

Assayed Target: Human immunodeficiency virus type 1 integrase (Human immunodeficiency virus 1, UniProt Q7ZJM1)
Run Description: Inhibition of HIV1 recombinant integrase strand transfer activity
Quantity Kind: log10(IC50) (log10 of the value in µM)
Give log10 of IC50, with IC50 taken in µM.

Molecule: CCn1cc(C(=O)O)c(=O)c2cc(F)c(N3CCN(CNC(=O)C4=C(O)[C@@H](N(C)C)[C@@H]5[C@@H](O)[C@H]6C(=C(O)[C@]5(O)C4=O)C(=O)c4c(O)cccc4[C@@]6(C)O)CC3)cc21
log10(IC50): 1.08
//
Molecule: COc1c(N2CCN(CNC(=O)C3=C(O)[C@@H](N(C)C)[C@@H]4[C@@H](O)[C@H]5C(=C(O)[C@]4(O)C3=O)C(=O)c3c(O)cccc3[C@@]5(C)O)C(C)C2)c(F)cc2c(=O)c(C(=O)O)cn(C3CC3)c12 (some centres undefined)
log10(IC50): 1.13
//
Molecule: CCn1cc(C(=O)O)c(=O)c2cc(F)c(N3CCN(CNC(=O)C4=C(O)[C@@H](N(C)C)[C@@H]5C[C@H]6C(=C(O)[C@]5(O)C4=O)C(=O)c4c(O)cccc4[C@@]6(C)O)C(C)C3)c(F)c21 (some centres undefined)
log10(IC50): 1.64
//
Molecule: CCn1cc(C(=O)O)c(=O)c2cc(F)c(N3CCN(CNC(=O)C4=C(O)[C@@H](N(C)C)[C@@H]5C[C@H]6C(=C(O)[C@]5(O)C4=O)C(=O)c4c(O)cccc4[C@@]6(C)O)CC3)cc21
log10(IC50): 1.11
//
Molecule: CCn1cc(C(=O)O)c(=O)c2cc(F)c(N3CCN(CNC(=O)C4=C(O)[C@@H](N(C)C)[C@@H]5C[C@@H]6Cc7c(N(C)C)ccc(O)c7C(=O)C6=C(O)[C@]5(O)C4=O)C(C)C3)c(F)c21 (some centres undefined)
log10(IC50): 1.26

Look up log10(IC50) for this molecule: CN(C)[C@@H]1C(O)=C(C(=O)NCN2CCCC2)C(=O)[C@@]2(O)C(O)=C3C(=O)c4c(O)cccc4[C@@](C)(O)[C@H]3C[C@@H]12 [ROLITETRACYCLINE]
1.53

And what about the molecule `CN(C)[C@@H]1C(O)=C(C(=O)NCN2CCN(c3cc4c(cc3F)c(=O)c(C(=O)O)cn4C3CC3)CC2)C(=O)[C@@]2(O)C(O)=C3C(=O)c4c(O)cccc4[C@@](C)(O)[C@H]3[C@H](O)[C@@H]12` ?
1.23

And what about the molecule CN(C)[C@@H]1C(O)=C(C(N)=O)C(=O)[C@@]2(O)C(O)=C3C(=O)c4c(O)cccc4[C@@](C)(O)[C@H]3C[C@@H]12 [TETRACYCLINE] ?
2.27

And what about the molecule `CN(C)[C@@H]1C(O)=C(C(=O)NCN2CCN(c3cc4c(cc3F)c(=O)c(C(=O)O)cn4C3CC3)CC2)C(=O)[C@@]2(O)C(O)=C3C(=O)c4c(O)cccc4[C@@](C)(O)[C@H]3C[C@@H]12` ?
1.08

Where these numbers come from: ChEMBL document CHEMBL1139205
